Target: CCL2 (Wild type) (Coprinopsis cinerea, UniProt B3GA02)
Construct: recombinant from E. coli, eight N-terminal His-residues (His8), monomer
Sequence (B3GA02 2-142): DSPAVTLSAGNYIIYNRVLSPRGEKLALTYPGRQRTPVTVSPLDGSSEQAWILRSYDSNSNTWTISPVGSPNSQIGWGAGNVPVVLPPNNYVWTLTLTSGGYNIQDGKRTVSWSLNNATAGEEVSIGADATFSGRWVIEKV
Assay: biochemical
assay_endpoint: pKd
On this scale, pKd is minus log10 of a concentration expressed in M (mol/L).

In: // pKd lookup, key: CO[C@@H]1O[C@H](CO)[C@@H](O[C@@H]2O[C@H](CO)[C@H](O)[C@H](O)[C@H]2O)[C@H](O[C@@H]2O[C@@H](C)[C@@H](O)[C@@H](O)[C@@H]2O)[C@H]1NC(C)=O [Galβ1,4[Fucα1,3]GlcNAcβ1-OMe, Lewis X trisaccharide methyl glycoside]
Out: 3.34
